Test system: Staphylococcus aureus bacteria (ATCC 9604 SV)
assayRemarks: Minimal inhibitory concentration (MIC), broth microdilution
Type: cell-based
assayConditions: Staphylococcus aureus ATCC 9604 SV, 24 h at 37° C.
hey, just use fulfilled if measured MIC is less than 2 µg/mL, otherwise not fulfilled

O=C1C(=Cc2ccsc2)C(c2ccccc2)=NN1c1cc(Cl)cc(Cl)c1 [Compound 33]; not fulfilled
O=C(Nc1cc(C(F)(F)F)cc(C(F)(F)F)c1)Nc1cc(-c2cccs2)nn1-c1ccc(C(F)(F)F)cc1 [Compound 83]; fulfilled
CCC1=NN(c2cc(Cl)cc(Cl)c2)C(=O)C1=C1C(=O)Nc2ccccc21 [Compound 56]; fulfilled
O=C(Nc1cc(Cl)cc(Cl)c1)Nc1cc(-c2ccccc2)nn1CC(F)(F)F [Compound 120]; not fulfilled
O=C1CC(c2ccccc2F)=NN1c1cc(Cl)cc(Cl)c1 [Compound 7]; not fulfilled
O=C1C(=Cc2c[nH]c3ccccc23)C(c2ccccc2)=NN1c1cc(Cl)cc(Cl)c1 [Compound 39]; not fulfilled
O=C(NCc1cccc(Cl)c1)Nc1nc(-c2ccc(Cl)c(Cl)c2)cs1 [Compound 179]; not fulfilled
O=C(Nc1cc(Cl)cc(Cl)c1)Nc1cc(-c2cccs2)nn1-c1ccc(Br)cc1 [Compound 108]; not fulfilled
CCOC(=O)N1CCC(=C2C(=O)N(c3cc(Cl)cc(Cl)c3)N=C2c2ccccc2)CC1 [Compound 41]; not fulfilled
O=C1C(=Cc2cccs2)C(c2ccccc2)=NN1c1cc(Cl)cc(Cl)c1 [Compound 36]; not fulfilled
CC(C)C1=NN(c2cc(Cl)cc(Cl)c2)C(=O)C1 [Compound 13]; not fulfilled
O=C(O)C=C1C(=O)N(c2cc(Cl)cc(Cl)c2)N=C1c1ccccc1 [Compound 46]; fulfilled
O=C1CC(c2ccccc2)=NN1c1cc(C(F)(F)F)cc(C(F)(F)F)c1 [Compound 47]; not fulfilled
Cc1cc(-c2cc(NC(=O)Nc3cc(C(F)(F)F)cc(C(F)(F)F)c3)n(-c3ccc(Br)cc3)n2)no1 [Compound 115]; fulfilled
COCCN(CCOC)Cc1cc(NC(=O)Nc2cc(Cl)cc(Cl)c2)n(-c2ccc(Br)cc2)n1 [Compound 102]; not fulfilled
O=C(Nc1cc(C(F)(F)F)cc(C(F)(F)F)c1)Nc1cc(Cc2ccccc2)nn1-c1ccc(C(F)(F)F)cc1 [Compound 74]; not fulfilled
COc1ccc(C(=O)C2C(=O)N(c3cc(Cl)cc(Cl)c3)N=C2c2ccccc2)cc1 (stereo not shown) [Compound 49]; not fulfilled
Cc1cc(NC(=O)Nc2cc(Cl)cc(Cl)c2)n(-c2ccc(Br)cc2)n1 [Compound 96]; not fulfilled
O=C(Nc1cc(C(F)(F)F)cc(C(F)(F)F)c1)Nc1cc(-c2cccnc2)nn1-c1ccc(C(F)(F)F)cc1 [Compound 86]; fulfilled
CCC1C(=O)N(c2cc(Cl)cc(Cl)c2)N=C1C (stereo not shown) [Compound 20]; not fulfilled
CCC1=NN(c2cc(Cl)cc(Cl)c2)C(=O)C1=Cc1ccc(C(=O)O)cc1 [Compound 59]; fulfilled
O=C(Nc1cc(C(F)(F)F)cc(C(F)(F)F)c1)Nc1nc(-c2ccc(CCO)cc2)cs1 [Compound 146]; not fulfilled
O=C(Nc1cc(C(F)(F)F)cc(C(F)(F)F)c1)Nc1nc(-c2ccc(F)c(F)c2)cs1 [Compound 151]; fulfilled
O=C(C=C1C(=O)N(c2cc(Cl)cc(Cl)c2)N=C1c1ccccc1)c1ccccc1 [Compound 26]; not fulfilled
Cc1cc(-c2csc(NC(=O)Nc3ccc(F)c(C(F)(F)F)c3)n2)ccc1F [Compound 169]; not fulfilled
O=C1CC(c2cccnc2)=NN1c1cc(Cl)cc(Cl)c1 [Compound 53]; not fulfilled
CCC1=NN(c2cc(Cl)cc(Cl)c2)C(=O)C1=CCCC(=O)O [Compound 61]; not fulfilled
O=C(Nc1cc(Cl)cc(Cl)c1)Nc1cc(-c2ccccc2)nn1-c1ccc(C(F)(F)F)cc1 [Compound 77]; not fulfilled
O=C(NCc1ccc(Cl)c(Cl)c1)Nc1nc(-c2ccc(F)c(F)c2)cs1 [Compound 182]; not fulfilled
O=C(Nc1cc(C(F)(F)F)cc(C(F)(F)F)c1)Nc1nc2ccccc2s1 [Compound 156]; fulfilled
O=C1C(=Cc2ccccn2)C(c2ccccc2)=NN1c1cc(Cl)cc(Cl)c1 [Compound 29]; not fulfilled
O=C(Nc1cc(C(F)(F)F)cc(C(F)(F)F)c1)Nc1nc(-c2ccc(CO)cc2)cs1 [Compound 145]; not fulfilled
O=C(NCc1ccc(Cl)c(Cl)c1)Nc1nc(-c2ccc(Br)cc2)cs1 [Compound 181]; not fulfilled
CCC1=NN(c2cc(Cl)cc(Cl)c2)C(=O)C1=CC(=O)O [Compound 57]; not fulfilled
